MEASUREMENT DESCRIPTION: recombinant barcode read abundance after kanamycin selection (control-corrected) (log10(CPM+1)); higher = more efficient recombination; sequences stand for … in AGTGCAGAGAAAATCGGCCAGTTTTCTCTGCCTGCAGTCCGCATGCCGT…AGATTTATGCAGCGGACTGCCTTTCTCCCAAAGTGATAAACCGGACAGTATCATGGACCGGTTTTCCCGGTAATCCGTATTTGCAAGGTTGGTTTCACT; site = the 11-nt target
Listing of recorded recombinant barcode read abundance (log10) by entry.
OBSERVATION TYPE: recombinant barcode read abundance (log10)

| ORDERED RESIDUES | RECORDED VALUE |
| --- | --- |
| AGTAAGCCTTGGGTTCTAACCTGTTGCAG (site AGTAAGCCTCT) | 1.12 |
| TTGAAGCCTTGGGTTCTAACCTGTTGCCT (site CTGAAGCCTAG) | 0.0479 |
| CAGTGTCCTTGGGTTCTAACCTGTTGCCG (site CAGTGTCCTCG) | 1.45 |
| GTTGGAACTTGGGTTCTAACCTGTTGCGT (site GTTGGGACTAG) | 0.312 |
| TACGACGCTTGGGTTCTAACCTGTTGCCT (site TACGACGCTAG) | 0.756 |
| ATATGGGCTTGGGTTCTAACCTGTTGCCG (site ATATGAGCTCG) | 0.369 |
| CCTCAATCTTGGGTTCTAACCTGTTGCTT (site CCTCATTCTAA) | 0.144 |
| CTCCGAGCTTGGGTTCTAACCTGTTGCTA (site CTCCGAGCTTA) | 0.0161 |
| TCCGGTACTTGGGTTCTAACCTGTTGCTT (site TCCAGTACTAA) | 0.0783 |
| CAGTATCCTTGGGTTCTAACCTGTTGCCT (site CAATATCCTAG) | 0.867 |
| GACGATCCTTGGGTTCTAACCTGTTGCCT (site GCCGATCCTAG) | 0.0719 |
| AAACTAACTTGGGTTCTAACCTGTTGCCT (site AGACTAACTAG) | 0.0602 |
| GATGGAGCTTGGGTTCTAACCTGTTGCGG (site GATCGAGCTTC) | 0.198 |
| GGATATCCTTGGGTTCTAACCTGTTGCCT (site TGAAATCCTAG) | 0.114 |
| ACGGTTGCTTGGGTTCTAACCTGTTGCCT (site ACGGTTGCTAG) | 2.22 |
| CCGATTCCTTGGGTTCTAACCTGTTGCCT (site CCGAGTCCTAG) | 0.0319 |
| GGCGATCCTTGGGTTCTAACCTGTTGCCT (site GCCGATCCTAG) | 0.213 |
| CTAAGAGCTTGGGTTCTAACCTGTTGCCA (site CTAAGGGCTTG) | 0.0357 |
| GGCACCACTTGGGTTCTAACCTGTTGCGT (site GGCACCACTAC) | 1.58 |
| GCTGGACCTTGGGTTCTAACCTGTTGCAT (site GCTGGACCTAT) | 2.18 |
| AATGCTCCTTGGGTTCTAACCTGTTGCCT (site AATGCTCCTAT) | 0.0129 |

----------
MEASUREMENT DESCRIPTION: recombinant UMI read abundance after kanamycin selection (control-corrected) (log10(CPM+1)); higher = more efficient recombination; extreme values may be limits of the assay; sequences stand for … in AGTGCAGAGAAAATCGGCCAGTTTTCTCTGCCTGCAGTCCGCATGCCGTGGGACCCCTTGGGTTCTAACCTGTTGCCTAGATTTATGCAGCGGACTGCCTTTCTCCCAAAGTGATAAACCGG…AGGTTGGTTTCACT; site = the 11-nt donor
recombinant UMI read abundance (log10) class ranges: lower (below 0.008), middle (0.008 to below 0.9), upper (0.9 or more)

| ORDERED RESIDUES | CLASS LABEL |
| --- | --- |
| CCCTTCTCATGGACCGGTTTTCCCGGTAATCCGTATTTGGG (site CCTTTCTCTCC) | lower |
| AAGCAGGCATGGACCGGTTTTCCCGGTAATCCGTATTTGGG (site AAGCAGGCTCC) | middle |
| TAACTCCCATGGACCGGTTTTCCCGGTAATCCGTATTTGGC (site TAACTCCCTGC) | middle |
| CTAGAATCATGGACCGGTTTTCCCGGTAATCCGTATTTGAG (site CTAGAATCTCT) | upper |
| CTAATAACATGGACCGGTTTTCCCGGTAATCCGTATTTGGA (site CTATTAACTTC) | upper |
| CCCTTAGCATGGACCGGTTTTCCCGGTAATCCGTATTTGTG (site CCGTTAGCTCA) | lower |
| CGGGATTCATGGACCGGTTTTCCCGGTAATCCGTATTTGCC (site CGGGATTCTGG) | upper |
| CGGAAGCCATGGACCGGTTTTCCCGGTAATCCGTATTTGTT (site CGGAAGCCTAA) | middle |
| ACACAACCATGGACCGGTTTTCCCGGTAATCCGTATTTGAC (site ACACAGCCTGT) | middle |
| GACACGCCATGGACCGGTTTTCCCGGTAATCCGTATTTGTA (site GACACGCCTTA) | middle |
| AGGACTGCATGGACCGGTTTTCCCGGTAATCCGTATTTGAC (site AGGACTACTGT) | upper |
| CCGTTAGCATGGACCGGTTTTCCCGGTAATCCGTATTTGGG (site CCGTTAGCTCT) | lower |
| CTGGTAACATGGACCGGTTTTCCCGGTAATCCGTATTTGCA (site CTGGGAACTTG) | lower |
| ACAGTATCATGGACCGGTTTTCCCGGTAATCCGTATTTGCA (site ACTTTATCTTG) | upper |
| ATTAGAACATGGACCGGTTTTCCCGGTAATCCGTATTTGGC (site GTTAGAACTGC) | lower |
| TACTTGGCATGGACCGGTTTTCCCGGTAATCCGTATTTGGA (site AACTTGGCTTC) | middle |
| CGGACTCCATGGACCGGTTTTCCCGGTAATCCGTATTTGTG (site CGGAATCCTAA) | lower |

----------
MEASUREMENT DESCRIPTION: recombinant UMI read abundance after kanamycin selection (control-corrected) (log10(CPM+1)); higher = more efficient recombination; extreme values may be limits of the assay; sequences stand for … in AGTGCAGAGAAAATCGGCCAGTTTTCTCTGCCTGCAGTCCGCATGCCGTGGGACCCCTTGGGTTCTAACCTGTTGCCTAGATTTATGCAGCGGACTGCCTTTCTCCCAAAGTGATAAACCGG…AGGTTGGTTTCACT; site = the 11-nt donor
Assign classes using reported recombinant UMI read abundance (log10) values and the ranges b0 = under 0.01, b1 = from 0.01 up to 0.8, b2 = 0.8 and over, please.

| ORDERED RESIDUES | CLASS LABEL |
| --- | --- |
| GGTCCCACATGGACCGGTTTTCCCGGTAATCCGTATTTGTA (site GGTCCAACTTA) | b0 |
| CACTGCCCATGGACCGGTTTTCCCGGTAATCCGTATTTGTT (site CACCGCCCTAA) | b1 |
| CGCGGAGCATGGACCGGTTTTCCCGGTAATCCGTATTTGGC (site CGCGGAGCTGC) | b2 |
| TTGTTGCCATGGACCGGTTTTCCCGGTAATCCGTATTTGGT (site TTGTTGCCTAC) | b1 |
| CAATGATCATGGACCGGTTTTCCCGGTAATCCGTATTTGAA (site CAATGATCTTT) | b2 |
| GTTAGCTCATGGACCGGTTTTCCCGGTAATCCGTATTTGTG (site GTTAGCTCTCA) | b1 |
| CTAAAATCATGGACCGGTTTTCCCGGTAATCCGTATTTGAC (site CTAGTATCTGT) | b1 |
| CTCCCGACATGGACCGGTTTTCCCGGTAATCCGTATTTGAG (site CTCCCGACTCT) | b2 |
| TAGCCTTCATGGACCGGTTTTCCCGGTAATCCGTATTTGGA (site TAGCCTTCTCC) | b1 |
| GTAGTCGCATGGACCGGTTTTCCCGGTAATCCGTATTTGCG (site GTAATCGCTCG) | b2 |
| TCATCTCCATGGACCGGTTTTCCCGGTAATCCGTATTTGTC (site TCATCTCCTGA) | b0 |
| AGAGTGTCATGGACCGGTTTTCCCGGTAATCCGTATTTGCA (site ACAGTATCTTG) | b2 |
| ACTAATACATGGACCGGTTTTCCCGGTAATCCGTATTTGGC (site CCTAATACTGC) | b0 |
| CTACTAACATGGACCGGTTTTCCCGGTAATCCGTATTTGGA (site CTTCTAACTTC) | b1 |
| GTTACAACATGGACCGGTTTTCCCGGTAATCCGTATTTGGC (site GTTAAAACTGC) | b1 |
| GGCAAATCATGGACCGGTTTTCCCGGTAATCCGTATTTGCT (site GGCAAATCTAG) | b0 |
| GTAGGATCATGGACCGGTTTTCCCGGTAATCCGTATTTGAC (site GTAGGATCTGT) | b2 |
| GTTTGAGCATGGACCGGTTTTCCCGGTAATCCGTATTTGCA (site GTTCGAGCTTG) | b2 |
| CCTGATACATGGACCGGTTTTCCCGGTAATCCGTATTTGGC (site CCTGATACTGC) | b0 |
| CTAGGTGCATGGACCGGTTTTCCCGGTAATCCGTATTTGAT (site CGAGGTGCTAT) | b1 |
| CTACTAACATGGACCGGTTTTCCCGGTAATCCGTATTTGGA (site CTACTAACTTG) | b2 |
| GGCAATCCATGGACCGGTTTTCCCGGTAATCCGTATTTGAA (site GGCAAGCCTTT) | b1 |
| GTAGGCGCATGGACCGGTTTTCCCGGTAATCCGTATTTGCG (site GTAGGCGCTCG) | b2 |
| AGGAAATCATGGACCGGTTTTCCCGGTAATCCGTATTTGCA (site AGGAAATCTTG) | b2 |
| CACTCGACATGGACCGGTTTTCCCGGTAATCCGTATTTGGG (site CACTCGACTCC) | b1 |
| TCCAACCCATGGACCGGTTTTCCCGGTAATCCGTATTTGCC (site TCCAACCCTGG) | b0 |
| TTATGCACATGGACCGGTTTTCCCGGTAATCCGTATTTGTA (site GTATGCACTTA) | b1 |
| CTGCTAGCATGGACCGGTTTTCCCGGTAATCCGTATTTGCT (site CTGCTATCTAG) | b0 |
| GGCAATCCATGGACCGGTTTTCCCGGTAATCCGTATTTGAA (site GGCAACCCTTT) | b0 |
| CGATCATCATGGACCGGTTTTCCCGGTAATCCGTATTTGCG (site CGATCATCTTG) | b0 |
| CTTGCGGCATGGACCGGTTTTCCCGGTAATCCGTATTTGCT (site TTTGCGGCTAG) | b0 |
| GTATGGCCATGGACCGGTTTTCCCGGTAATCCGTATTTGCA (site GTATGGCCTTG) | b0 |
| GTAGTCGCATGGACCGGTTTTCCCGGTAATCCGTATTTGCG (site GTAGTCGCTCT) | b1 |
| CGAGTATCATGGACCGGTTTTCCCGGTAATCCGTATTTGAC (site CAAGTATCTGT) | b2 |
